system: Streptomyces; assay: Antimicrobial activity against Streptomyces 85E at 80 ug/disk after 30 hrs by hyphae formation inhibition assay; type: functional, organism-based
Activity calls are given as the source filed them. The rule behind the calls is not given here.

# structure.string, Activity
measured = [
    ("COC(=O)[C@H]1O[C@@H]2C[C@H]3O[C@@H](n4cnc5c(N)ncnc54)[C@H](OC)[C@H]3O[C@@]2(O)[C@@H](O)[C@@H]1O", "inactive"),
    ("C/C=C(\\C)C(=O)O[C@H]1[C@H](O)[C@@H](C(=O)OC)O[C@@H]2C[C@H]3O[C@@H](n4cnc5c(N)ncnc54)[C@H](O)[C@H]3O[C@]21O", "inactive"),
    ("C/C=C(\\C)C(=O)O[C@H]1[C@H](O)[C@@H](C(=O)OC)O[C@@H]2C[C@H]3O[C@@H](n4cnc5c(N)ncnc54)[C@H](OC)[C@H]3O[C@]21O", "inactive"),
]

* * *

target: UniProtKB P35228; test: Inhibition of iNOS (unknown origin)
Sequence (P35228 whole entry): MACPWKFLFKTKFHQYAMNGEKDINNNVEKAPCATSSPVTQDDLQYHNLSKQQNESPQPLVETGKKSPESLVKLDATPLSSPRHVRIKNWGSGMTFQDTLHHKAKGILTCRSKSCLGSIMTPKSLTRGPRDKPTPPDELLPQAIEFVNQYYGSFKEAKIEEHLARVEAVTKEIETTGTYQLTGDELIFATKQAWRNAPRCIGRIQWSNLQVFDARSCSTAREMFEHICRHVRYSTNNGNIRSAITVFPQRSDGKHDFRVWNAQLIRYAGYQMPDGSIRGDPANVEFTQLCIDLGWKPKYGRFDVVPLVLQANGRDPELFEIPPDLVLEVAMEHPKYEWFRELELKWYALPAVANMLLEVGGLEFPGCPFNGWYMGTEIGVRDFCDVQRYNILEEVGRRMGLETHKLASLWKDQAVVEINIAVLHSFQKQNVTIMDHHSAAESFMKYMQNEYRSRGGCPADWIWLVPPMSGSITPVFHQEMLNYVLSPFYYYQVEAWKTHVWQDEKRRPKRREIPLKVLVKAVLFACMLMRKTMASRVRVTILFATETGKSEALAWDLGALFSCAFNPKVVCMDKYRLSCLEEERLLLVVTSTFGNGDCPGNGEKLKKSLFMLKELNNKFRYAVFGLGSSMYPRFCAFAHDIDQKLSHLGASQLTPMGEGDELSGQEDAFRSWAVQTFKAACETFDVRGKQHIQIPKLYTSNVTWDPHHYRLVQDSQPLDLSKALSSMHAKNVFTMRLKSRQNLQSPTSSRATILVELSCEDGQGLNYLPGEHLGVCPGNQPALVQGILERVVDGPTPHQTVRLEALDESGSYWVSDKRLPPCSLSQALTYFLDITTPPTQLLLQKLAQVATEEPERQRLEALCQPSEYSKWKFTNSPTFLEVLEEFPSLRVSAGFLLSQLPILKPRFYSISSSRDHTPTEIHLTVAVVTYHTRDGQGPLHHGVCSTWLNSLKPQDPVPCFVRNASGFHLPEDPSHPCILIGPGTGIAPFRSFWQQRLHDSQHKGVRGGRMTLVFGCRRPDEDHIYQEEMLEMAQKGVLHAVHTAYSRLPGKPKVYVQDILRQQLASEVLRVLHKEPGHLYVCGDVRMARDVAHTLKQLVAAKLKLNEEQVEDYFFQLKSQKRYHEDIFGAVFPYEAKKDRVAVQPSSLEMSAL
The source made the active and inactive calls. The rule behind the calls is not given here.
measure: inhibition

# structure.string, measure, result
records = [
    ("C/C=C(\\C)C(=O)O[C@H]1[C@H](O)[C@@H](C(=O)OC)O[C@@H]2C[C@H]3O[C@@H](n4cnc5c(N)ncnc54)[C@H](OC)[C@H]3O[C@]21O", "inhibition", "inactive"),
    ("COC(=O)[C@H]1O[C@@H]2C[C@H]3O[C@@H](n4cnc5c(N)ncnc54)[C@H](OC)[C@H]3O[C@@]2(O)[C@@H](O)[C@@H]1O", "inhibition", "inactive"),
    ("COC(=O)[C@@H]1CC(O)(O)[C@]2(O)O[C@@H]3[C@@H](OC)[C@H](n4cnc5c(N)ncnc54)O[C@@H]3C[C@H]2O1", "inhibition", "inactive"),
]

* * *

system: HEK293; experiment: Cytotoxicity against HEK293 cells; assay type: cell-based; settings: Homo sapiens
measure: pIC50
In textbook form, pIC50 equals minus log to base ten of the concentration in mol/L.

For orientation, consider the following solved cases.
# compound, measure, numeric.readout
rows = [
    ("COC(=O)[C@H]1O[C@@H]2C[C@H]3O[C@@H](n4cnc5c(N)ncnc54)[C@H](OC)[C@H]3O[C@@]2(O)[C@H](O)[C@@H]1O", "pIC50", 4.36),
    ("C/C=C(\\C)C(=O)O[C@H]1[C@H](O)[C@@H](C(=O)OC)O[C@@H]2C[C@H]3O[C@@H](n4cnc5c(N)ncnc54)[C@H](O)[C@H]3O[C@]21O", "pIC50", 5.66),
    ("COC(=O)[C@@H]1CC(O)(O)[C@]2(O)O[C@@H]3[C@@H](OC)[C@H](n4cnc5c(N)ncnc54)O[C@@H]3C[C@H]2O1", "pIC50", 4.86),
]

We now examine a further compound.
Field pIC50 (entry Cc1ccc(S(=O)(=O)N[C@@H](Cc2ccccc2)C(=O)CCl)cc1 [TPCK] ) reads 4.95

* * *

The compounds listed here are annotated with their selectivity ratio.
system: NF-kappaB; assay: Selectivity ratio of IC50 for HEK293 cells to IC50 for NF-kappaB activity in HEK293 cells; type: ADME, cell-based; settings: human, read-out: Ratio IC50
Keep it simple and answer with nothing but the number.

# structure.string, numeric.readout
rows = [
    ("Cc1ccc(S(=O)(=O)/C=C/C#N)cc1", 2),
]

Next item in the queue.
selectivity ratio reported for this compound `Cc1ccc(S(=O)(=O)N[C@@H](Cc2ccccc2)C(=O)CCl)cc1` : 2
